Cited source: paper PMC12431657

Tested on: HCoV-229E
Set-up: species or system Huh-7; HTS, protection from HCoV-229E induced cell death, luminescent cell viability (CellCounting-Lite 2.0), inhibition rate
CONDITION_PARAMETERS: 24 h, 10 µM; inhibitor
Screen size: about 3,300 compounds; about 95 (3%) showed an effect of 50% or more. The entries come from a sample that favours strong results as a whole.
Entries are grouped by 229E Inhibition rate into these classes: low (below 10%), moderate (10% to below 20%), high (20% or more)

Field: example entries. Status: answers known.
CC(C)(C)[C@]1(O)C[C@@H]2OC(=O)C[C@@]23C(=O)O[C@@H]2OC(=O)[C@H](O)[C@]213 [Bilobalide] : high
CN1Cc2c(ccc3c2OCO3)[C@@H]2[C@H]1c1cc3c(cc1C[C@@H]2O)OCO3 : moderate
COc1cc2cc(c1Cl)N(C)C(=O)C[C@H](OC(=O)C(C)C)[C@]1(C)O[C@@H]1[C@H](C)[C@@H]1C[C@@](O)(NC(=O)O1)[C@H](OC)/C=C/C=C(\C)C2 : high
C/C=C/C#CC#C/C=C/c1ccco1 : moderate
COC(=O)[C@]12OC[C@]34[C@H]([C@@H](O)[C@@H]1O)[C@@]1(C)CC(=O)C(O)=C(C)[C@@H]1C[C@H]3OC(=O)[C@H](OC(=O)/C=C(\C)C(C)(C)OC(C)=O)[C@@H]24 [Bruceantinol] : low

## Input Which 229E Inhibition rate band matches `C[C@]12CC[C@@H](O)C[C@H]1CC[C@@H]1[C@@H]2CC[C@]2(C)C(=O)CC[C@@H]12` ?
## Output moderate

## Input Cool, now `CCN1C[C@]2(C)CC[C@H](OC)[C@@]34C1[C@]1(OCO[C@@]15C[C@H](OC)[C@H]1C[C@]3(O)[C@@H]5[C@H]1OC)[C@@H](OC(C)=O)[C@H]24`
## Output low

## Input Cool, now `CC1(C)[C@H]2O[C@H]2[C@H]2[C@](C)(O)[C@@H]3CC[C@@H]4[C@@H](O)[C@@]3(C[C@@H](O)[C@@]21O)C[C@@]4(C)O`
## Output high
